Value source: PubChem BioAssay (NCI)

# Tested on: MALME-3M melanoma
# Method Description: NCI tumour cell line growth inhibition, 48 h
Reported Metric: TGI (µM)
Only the number, expressed in µM, is required.

// TGI lookup, compound = c1ccc(C(CCN2CC3CCC(CC3)C2)c2ccccc2)cc1 , result: 29.9

Here's the next entry for you.
// TGI lookup, compound = O=C(OCc1ccccc1)N1CCN(C(=O)OCc2ccccc2)CCN(C(=O)OCc2ccccc2)CCN(C(=O)OCc2ccccc2)CCN(C(=O)OCc2ccccc2)CC1 , result: 61.2

====

# Tested on: SN12C renal
# Method Description: NCI tumour cell line growth inhibition, 48 h
Reported Metric: TGI

Some compounds with known TGI results, for comparison:
SN12C renal assay, compound C=C(C(=O)OC)c1cc2ccccc2n1S(=O)(=O)c1ccccc1 , recorded TGI = 8.18 µM

SN12C renal assay, compound NNC(=O)/C(NC(=O)c1ccccc1)=C(\N)c1ccc(Cl)cc1 , recorded TGI = > 100 µM

SN12C renal assay, compound CCN1CCC(O)(c2ccc(Oc3ccc(C)cc3)cc2)C(C(=O)c2ccc(Oc3ccc(C)cc3)cc2)C1 (stereo not drawn) , recorded TGI = 30.7 µM

SN12C renal assay, compound CC(C)C1CC[C@H](C)C[C@@H]1OC(=O)C(C(=O)O[C@H]1C[C@@H](C)CCC1C(C)C)C(O)[C@@H]1OC(C)(C)O[C@H]1C1COC(C)(C)O1 (stereo partly drawn) , recorded TGI = 30 µM

SN12C renal assay, compound O=[N+]([O-])c1ccc(Cl)cc1N/N=C/c1cccc2cccnc12 , recorded TGI = > 100 µM

SN12C renal assay, compound Clc1c(C(Cl)(Cl)Cl)nsc1N1CCCCC1 , recorded TGI = 80.9 µM

SN12C renal assay, compound OCc1ccc(N(CCN2CCCC2)Cc2ccc(F)cc2)cc1Cl , recorded TGI = > 100 µM

SN12C renal assay, compound Cn1c(=O)c2c(nc(Nc3ccc(Cl)cc3)n3c(=O)n(-c4ccccc4)c(=O)n23)n(C)c1=O , recorded TGI = > 100 µM

SN12C renal assay, compound CC(C)CN(CC(C)C)C(=O)C1CCCC[C@@H]1C(=O)O (stereo partly drawn) , recorded TGI = > 100 µM

SN12C renal assay, compound COc1cc(OC)c(C(=O)/C=C/c2cccc(OC(C)=O)c2)cc1CC=C(C)C , recorded TGI = > 50 µM

New cases:
SN12C renal assay, compound c1ccc2c(c1)CC1COc3ccccc3C1O2 (stereo not drawn) , recorded TGI = > 100 µM

SN12C renal assay, compound NS(=O)(=O)c1ccc(NC(=O)c2cccc3cc4ccccc4nc23)cc1 , recorded TGI = > 100 µM

SN12C renal assay, compound NC1CC(=O)c2sccc21 (stereo not drawn) , recorded TGI = > 100 µM

SN12C renal assay, compound C=C1C(=O)O[C@@H]2[C@H](O)[C@@H](C)[C@@H]3C=CC(=O)[C@@]3(C)[C@H](OC(=O)C=C(C)C)[C@H]12 , recorded TGI = 2.27 µM
